Measured values drawn from PubChem BioAssay for this set.

- System: wheat germ agglutinin (Triticum aestivum), Alexa647-labelled
- testDescription: wheat germ agglutinin binders on compound microarrays, profiling panel, artefact control for SMM control-protein annotation, biochemical, small-molecule microarray, 635/667 nm fluorescence (AID 1140);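 further: score merges 667 nm feature emission with signal to noise over triplicate slides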
- measurementParameters: WGA-A647 binding, 635 nm fluorescence, higher = more signal
endpointLabel: composite z-score
When you answer, write just the number.

## Input // lookup composite z-score | system=wheat germ agglutinin (Triticum aestivum), Alexa647-labelled | key= O=C1c2ccccc2[C@@]2(Cc3ccccc3N(CC(F)(F)F)C2=O)[C@H](c2ccc(CO)cc2)N1Cc1ccccc1
## Output 0.0111

## Input // lookup composite z-score | system=wheat germ agglutinin (Triticum aestivum), Alexa647-labelled | key= [N-]=[N+]=Nc1ccccc1C[C@@]1(C(=O)NCC(O)CO)N=C(c2ccc(OCCCO)cc2)O[C@@H]1c1ccccc1N=[N+]=[N-] (some centres not stated)
## Output 1.13

## Input // lookup composite z-score | system=wheat germ agglutinin (Triticum aestivum), Alexa647-labelled | key= COC(=O)C(CC#Cc1ccc2c(c1)[C@]1(C(=O)N2)[C@H](c2ccccc2OCCO)N2[C@H](c3ccccc3)[C@H](c3ccccc3)OC(=O)[C@H]2[C@@H]1C(=O)N1CCN(c2ncccn2)CC1)C(=O)OC
## Output 0.481

## Input // lookup composite z-score | system=wheat germ agglutinin (Triticum aestivum), Alexa647-labelled | key= CCCCCCc1nc(-c2ccc(OC)nc2)c(C)c2c1[Si](C(C)C)(C(C)C)OC2
## Output -0.491

## Input // lookup composite z-score | system=wheat germ agglutinin (Triticum aestivum), Alexa647-labelled | key= Cc1ccc(S[C@]2(C(=O)NC(C)C)CC(=O)N(Cc3ccccc3)[C@@H]2c2ccc(CO)cc2I)cc1
## Output -1.09

## Input // lookup composite z-score | system=wheat germ agglutinin (Triticum aestivum), Alexa647-labelled | key= CCCCCCCCCCC(O)C1C=CC2C(=O)N(C)C(=O)C2N1Nc1ccccc1 (configuration not stated)
## Output -0.848

## Input // lookup composite z-score | system=wheat germ agglutinin (Triticum aestivum), Alexa647-labelled | key= C=CCNC(=O)[C@@H]1[C@H]2C(=O)O[C@H](c3ccccc3)[C@H](c3ccccc3)N2[C@H](c2ccc(OCCO)cc2)[C@@]12C(=O)Nc1ccc(C#CC3=CCCCC3)cc12
## Output 0.898

====

- testDescription: MM1S myeloma cell viability, profiling panel, resazurin fluorescence, basal, 24 h, PK04 Diversity Set (AID 1174);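 further: MM1S multiple myeloma cell line; test concentration not given here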
- measurementParameters: higher = more signal, called active from +8 up or from −8 down
Field: z-score. Provide a value for each of the molecules that follow.
When you answer, write just the number.

## Input Recorded z-score for CC1C2C(CCCO)=CC(C3C(=O)N(C)C(=O)C23)N1Cc1cccc(OC(F)(F)F)c1 (centres undefined) , please?
## Output -0.244

## Input Recorded z-score for COCCOC(=O)N1C(=O)[C@@]2(c3cc(C#CC4=CCCCC4)ccc31)[C@H](C(=O)N1CCCCCCC1)[C@H]1C(=O)O[C@H](c3ccccc3)[C@H](c3ccccc3)N1[C@@H]2c1ccccc1OCCO , please?
## Output 0.209

## Input Recorded z-score for COc1ccc([Si](C)(C)[C@H]2[C@H](CC(=O)N3CCC[C@H]3CO)O[C@@]3(C(=O)N(Cc4cccc(N5CCCCC5=O)c4)c4ccccc43)[C@@H]2C)cc1 , please?
## Output -0.0453

## Input Recorded z-score for C=C(COC)C(=O)CC[C@@H](OC(=O)c1ccccc1-c1ccccc1C(=O)O)c1ccccc1OCCO , please?
## Output -1.95

## Input Recorded z-score for COc1ccc([Si](C)(C)[C@H]2[C@H](CC(=O)N(CCO)Cc3ccccc3)O[C@@]3(C(=O)N(Cc4cccc(N5CCCCC5=O)c4)c4ccccc43)[C@@H]2C)cc1 , please?
## Output -2.35

## Input Recorded z-score for CC[C@@H](O[Si](C#C[Si](C(C)C)(C(C)C)C(C)C)(C(C)C)C(C)C)c1cn([C@H](CO)Cc2ccccc2)nn1 , please?
## Output 0.604

## Input Recorded z-score for COC(=O)[C@@]1(Cc2ccc(F)cc2)[C@H]2c3cc(C(=O)N4CCCC4)n(Cc4ccc(OC(F)(F)F)cc4)c3C[C@H]2CN1C(=O)c1ccccc1 , please?
## Output -0.799

## Input Recorded z-score for CCCNC(=O)[C@@]1(Sc2ccc(C)cc2)CC(=O)N(Cc2cc(C(F)(F)F)cc(C(F)(F)F)c2)[C@@H]1c1ccc(CO)cc1 , please?
## Output 0.905

## Input Recorded z-score for O=C1NC(=O)C2C1C=CC(C(O)C(O)CO)N2Nc1ccccn1 (centres undefined) , please?
## Output -0.872

## Input Recorded z-score for NCCCCCCNC(=O)[C@@H]1C[C@@H]2C(=O)NCC(=O)N2[C@@H]1c1cccc(OCCO)c1 , please?
## Output 0.717

## Input Recorded z-score for COc1ccc([Si](C)(C)[C@@H]2[C@@H](CC(=O)N(CCO)Cc3ccccc3)O[C@]3(C(=O)N(Cc4cccc(I)c4)c4ccccc43)[C@H]2C)cc1 , please?
## Output -3.25

## Input Recorded z-score for COc1ccc([Si](C)(C)[C@H]2[C@H](CC(=O)N(CCO)Cc3ccccc3)O[C@@]3(C(=O)N(c4ccccc4)c4ccccc43)[C@@H]2C)cc1 , please?
## Output -8.42

## Input Recorded z-score for CCOC(=O)C1=CC[C@@H](c2ccccc2)N(S(=O)(=O)c2ccc(C)cc2)[C@@H]1C#N , please?
## Output -1.43

## Input Recorded z-score for [N-]=[N+]=Nc1ccccc1C[C@@]1(C(=O)NCc2ccccc2)N=C(c2ccc(OCCCO)cc2)O[C@@H]1c1ccccc1 , please?
## Output -1.71
